# assay_overview: Pharmacokinetics in Sprague-Dawley rats
# Type: in vivo
# measurement_conditions: male, Sprague-Dawley, rat, plasma, po, 20 mg/kg; read-out: MRT0-∞
assay_metric: MRT inf (h)
// units = h; emit number, no label

Note down MRT inf recorded for CC(C)C(=O)Nc1nc2cc(-c3ccc4c(c3)c(C(=O)NC(C)c3ccccc3)cn4C)ccn2n1 (stereo not shown) [RI-962]
1.8

----------
# assay_overview: Pharmacokinetics in Sprague-Dawley rats
# Format: in vivo
# measurement_conditions: male, Sprague-Dawley, rat, plasma, ip, 20 mg/kg
assay_metric: bioavailability (%)
// units = %; emit number, no label

Note down bioavailability recorded for CC(C)C(=O)Nc1nc2cc(-c3ccc4c(c3)c(C(=O)NC(C)c3ccccc3)cn4C)ccn2n1 (stereo not shown)
35.7
